Attribution: patent US20150111251A1

# kon per record follows
biological target: T1, Recombinant Human TNF-α/TNFSF1A (human, UniProt P01375 77-233); experiment: SPR (BIACORE), antibody captured, TNFα in solution
T1 construct: also called hTNF-α; huTNFα
T1 sequence (P01375 77-233 limits assumed): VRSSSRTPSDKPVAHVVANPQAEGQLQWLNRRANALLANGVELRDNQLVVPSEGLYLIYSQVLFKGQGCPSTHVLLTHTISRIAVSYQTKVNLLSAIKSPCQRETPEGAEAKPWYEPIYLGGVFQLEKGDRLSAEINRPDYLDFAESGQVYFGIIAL
Provide the reading as a plain figure in M⁻¹ s⁻¹.

[
  {
    "Binder": "AB384 (antibody, V domains shown, Full-length humanized antibody made in HEK 293-6E; also called hMAK199VH.2b/hMAK199VL.2) VH: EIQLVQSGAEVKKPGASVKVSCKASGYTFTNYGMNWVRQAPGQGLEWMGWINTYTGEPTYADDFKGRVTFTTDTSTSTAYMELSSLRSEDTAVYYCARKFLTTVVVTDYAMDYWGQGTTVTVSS VL: DVVMTQSPAFLSVTPGEKVTITCRASQDISNYLNWYQQKPDQAPKLLIKYTSRLQSGVPSRFSGSGSGTDFTFTISSLEAEDAATYYCQQGNTLPPTFGQGTKLEIK",
    "kon (M⁻¹ s⁻¹)": 660000
  }
]

Shifting focus to the binder that follows.
Fill blank: measured kon of the binder AB377 (antibody, V domains shown, Full-length humanized antibody made in HEK 293-6E; also called hMAK199VH.2a/hMAK199VL.1b) VH: EIQLVQSGAEVKKPGASVKVSCKASGYTFTNYGMNWVRQAPGQGLEWMGWINTYTGEPTYADDFKGRFTFTLDTSTSTAYMELSSLRSEDTAVYFCARKFLTTVVVTDYAMDYWGQGTTVTVSS VL: DIQMTQSPSSLSASVGDRVTITCRASQDISNYLNWYQQKPGKAPKLLIYYTSRLQSGVPSRFSGSGSGTDYTLTISSLQPEDFATYYCQQGNTLPPTFGQGTKLEIK is ____.
1.1e+06
